- Test system: A549
- Assay Notes: Euclidean distance of Cell Painting phenotypic profile (signed KS, 77 features) to DMSO centroid (dimensionless distance); 5 or 10 uM (library dependent); higher = stronger phenotypic change vs DMSO (phenoactivity)
- Experimental Parameters: 48 h
Assign Euclidean distance to each entry below.
I only need the number, thanks.

Consider CN[C@@H]1CCc2[nH]c3ccc(C(N)=O)cc3c2C1 [Frovatriptan Succinate] . Its measured Euclidean distance is 0.718

Consider CCCCCC(=O)O[C@]1(C(C)=O)CC[C@H]2[C@@H]3CCC4=CC(=O)CC[C@]4(C)[C@H]3CC[C@@]21C [Hydroxyprogesterone caproate] . Its measured Euclidean distance is 1.41

Consider Cc1c(C(=O)Nc2ccc(N3C[C@@H](C)O[C@@H](C)C3)nc2)cccc1-c1ccc(OC(F)(F)F)cc1 [LDE225 (NVP-LDE225.Erismodegib)] . Its measured Euclidean distance is 1.2

Consider `Cn1cc(-c2cnn3c(N)c(Br)c([C@@H]4CCCNC4)nc23)cn1` . Its measured Euclidean distance is 1.1

Consider O=C(Nc1ccccc1)c1ccccc1O [Salicylanilide] . Its measured Euclidean distance is 0.631

Consider CN1CCC[C@@H]1Cc1c[nH]c2ccc(CCS(=O)(=O)c3ccccc3)cc12 [Eletriptan HBr] . Its measured Euclidean distance is 0.828

Consider C[C@H]1O[C@H](O[C@H]2[C@H](O)[C@@H](O)[C@@H](O[C@H]3[C@H](O)[C@@H](O)C(O)O[C@@H]3CO)O[C@@H]2CO)[C@H](O)[C@@H](O)[C@@H]1N[C@H]1C=C(CO)[C@@H](O)[C@H](O)[C@H]1O (some centres undefined) [Acarbose] . Its measured Euclidean distance is 1.91

Consider CCCCNc1ccc(C(=O)OCCOCCOCCOCCOCCOCCOCCOCCOCCOC)cc1 [Benzonatate] . Its measured Euclidean distance is 1.09

Consider Clc1ccc(C(Cn2ccnc2)OCc2ccsc2Cl)c(Cl)c1 (centres undefined) [Tioconazole] . Its measured Euclidean distance is 0.786
